# Tested on: breast cancer MDA-MB-231 cells
# assay-protocol: MTT antiproliferation assay, MDA-MB-231
# Assay type: cell-based, human
# condition-parameters: 48 h, means ± SD, n = 3
pIC50: −log10 of the molar value.
Task for the reader: assign each of the following compounds its reported pIC50.

[ask] Entry under review: CCOc1ccccc1Nc1nnc(CNC(=O)CCC(=O)OC2OC3OC4(C)CCC5C(C)CCC(C2C)C35OO4)o1 (centres unmarked) . Reported pIC50?
[reply] < 4.52

[ask] Same lookup for Cc1ccc(Nc2nnc(CNC(=O)CCC(=O)OC3OC4OC5(C)CCC6C(C)CCC(C3C)C46OO5)o2)c(C)c1 (centres unmarked) , please.
[reply] < 4.52

[ask] Same lookup for CC1CCC2C(C)C(OC(=O)CCC(=O)NCc3nnc(Nc4ccc(Br)cc4)o3)OC3OC4(C)CCC1C32OO4 (centres unmarked) , please.
[reply] < 4.52

[ask] Same lookup for CC1CCC2C(C)C(OC(=O)CCC(=O)NCc3nnc(Nc4ccc(Cl)cc4)o3)OC3OC4(C)CCC1C32OO4 (centres unmarked) , please.
[reply] < 4.52

[ask] Same lookup for CC1CCC2C(C)C(OC(=O)CCC(=O)NCc3nnc(Nc4cc(Br)ccc4Br)o3)OC3OC4(C)CCC1C32OO4 (centres unmarked) , please.
[reply] < 4.52

[ask] Same lookup for Cc1ccc(Nc2nnc(CNC(=O)CCC(=O)OC3OC4OC5(C)CCC6C(C)CCC(C3C)C46OO5)o2)cc1 (centres unmarked) , please.
[reply] 5.31

[ask] Same lookup for CC1CCC2C(C)C(OC(=O)CCC(=O)NCc3nnc(Nc4ccc(F)cc4F)o3)OC3OC4(C)CCC1C32OO4 (centres unmarked) , please.
[reply] 5.28

[ask] Same lookup for CC1CCC2C(C)C(OC(=O)CCC(=O)NCc3nnc(Nc4ccccc4F)o3)OC3OC4(C)CCC1C32OO4 (centres unmarked) , please.
[reply] < 4.52

[ask] Same lookup for CC1CCC2C(C)C(OC(=O)CCC(=O)NCc3nnc(Nc4c(F)cccc4F)o3)OC3OC4(C)CCC1C32OO4 (centres unmarked) , please.
[reply] < 4.52

[ask] Same lookup for CC1CCC2C(C)C(OC(=O)CCC(=O)NCc3nnc(Nc4ccc(C(C)(C)C)cc4)o3)OC3OC4(C)CCC1C32OO4 (centres unmarked) , please.
[reply] < 4.52

[ask] Same lookup for CC1CCC2C(C)C(OC(=O)CCC(=O)NCc3nnc(Nc4ccc(C(F)(F)F)cc4)o3)OC3OC4(C)CCC1C32OO4 (centres unmarked) , please.
[reply] < 4.52

[ask] Same lookup for Cc1cc(C)cc(Nc2nnc(CNC(=O)CCC(=O)OC3OC4OC5(C)CCC6C(C)CCC(C3C)C46OO5)o2)c1 (centres unmarked) , please.
[reply] < 4.52

[ask] Same lookup for COc1ccc(Nc2nnc(CNC(=O)CCC(=O)OC3OC4OC5(C)CCC6C(C)CCC(C3C)C46OO5)o2)cc1 (centres unmarked) , please.
[reply] 4.71

[ask] Same lookup for CC1CCC2C(C)C(OC(=O)CCC(=O)NCc3nnc(Nc4ccc(OC(F)(F)F)cc4)o3)OC3OC4(C)CCC1C32OO4 (centres unmarked) , please.
[reply] < 4.52
